System: Mycobacterium tuberculosis
Assay: Antimycobacterial activity against Mycobacterium tuberculosis clinical isolates by agar dilution method
Type: functional
Each record here notes measured MIC50.
The answer is to be given in µg/mL; state only the numeric part.

1. Cc1c(CN2CCSCC2)cc(-c2ccc(Cl)cc2)n1-c1ccc(C(C)C)cc1 0.25
2. Cc1c(CN2CCSCC2)cc(-c2ccc(C(C)C)cc2)n1-c1ccc(F)cc1 0.5
3. CCCc1ccc(-n2c(-c3ccc(Cl)cc3)cc(CN3CCSCC3)c2C)cc1 0.5

For the molecule NNC(=O)c1ccncc1 , give its measured MIC50 value.
0.125

----------
Tested on: Mycobacterium tuberculosis
Test: Antimycobacterial activity against Mycobacterium tuberculosis H37Rv
Assay type: functional
Each record here notes measured MIC.
The answer is to be given in mg/L; state only the numeric part.

compound	subject of test	test result
[H]/N=C(/N)N[C@H]1[C@H](O)[C@@H](O)[C@H](O[C@@H]2O[C@@H](C)[C@](O)(C=O)[C@H]2O[C@@H]2O[C@@H](CO)[C@H](O)[C@@H](O)[C@@H]2NC)[C@@H](N/C(N)=N\[H])[C@@H]1O (stereo in doubt)	Mycobacterium tuberculosis	4
CO[C@H]1/C=C/O[C@@]2(C)Oc3c(C)c(O)c4c(O)c(c(/C=N/N5CCN(C)CC5)c(O)c4c3C2=O)NC(=O)/C(C)=C\C=C\[C@H](C)[C@H](O)[C@@H](C)[C@@H](O)[C@@H](C)[C@H](OC(C)=O)[C@@H]1C	Mycobacterium tuberculosis	0.25
Cc1c(CN2CCSCC2)cc(-c2ccc(Cl)cc2)n1-c1ccc(C(C)C)cc1	Mycobacterium tuberculosis	0.25

For the compound CCc1ccc(-c2cc(CN3CCSCC3)c(C)n2-c2ccc(Cl)cc2)cc1 , give its measured MIC value.
0.25

----------
Tested on: Mycobacterium tuberculosis
Test: Antimycobacterial activity against Mycobacterium tuberculosis 103471
Assay type: functional
Each record here notes measured MIC.
The answer is to be given in µg/mL; state only the numeric part.

Here is how some molecules turned out for MIC.
molecule	test result
Cc1c(CN2CCN(C)CC2)cc(-c2ccc(Cl)cc2)n1-c1ccc(Cl)cc1	1
CCCc1ccc(-n2c(-c3ccc(Cl)cc3)cc(CN3CCSCC3)c2C)cc1	0.25
[H]/N=C(/N)N[C@H]1[C@H](O)[C@@H](O)[C@H](O[C@@H]2O[C@@H](C)[C@](O)(C=O)[C@H]2O[C@@H]2O[C@@H](CO)[C@H](O)[C@@H](O)[C@@H]2NC)[C@@H](N/C(N)=N\[H])[C@@H]1O (stereo in doubt)	0.5
Cc1c(CN2CCSCC2)cc(-c2ccc(Cl)cc2)n1-c1ccc(C(C)C)cc1	0.25

For the molecule CCCc1ccc(-c2cc(CN3CCSCC3)c(C)n2-c2ccc(Cl)cc2)cc1 , give its measured MIC value.
0.25

For the molecule Cc1c(CN2CCSCC2)cc(-c2ccc(C(C)C)cc2)n1-c1ccc(Cl)cc1 , give its measured MIC value.
0.125

For the molecule CCc1ccc(-n2c(-c3ccc(F)cc3)cc(CN3CCSCC3)c2C)cc1 , give its measured MIC value.
2

For the molecule Cc1c(CN2CCSCC2)cc(-c2ccc(C(C)C)cc2)n1-c1ccc(F)cc1 , give its measured MIC value.
0.25

----------
Test system: Mycobacterium tuberculosis
Assay: Antimycobacterial activity against Mycobacterium tuberculosis 103471
Type: functional
Note to self: use condition met only for MIC readings below 1 µg/mL; a reading exactly at 1 µg/mL still gets condition not met.

1) CCCc1ccc(-c2cc(CN3CCSCC3)c(C)n2-c2ccc(F)cc2)cc1 condition not met
2) NNC(=O)c1ccncc1 condition met
3) CCc1ccc(-c2cc(CN3CCSCC3)c(C)n2-c2ccc(Cl)cc2)cc1 condition met
4) Cc1c(CN2CCSCC2)cc(-c2ccc(F)cc2)n1-c1ccc(C(C)C)cc1 condition not met

Threshold test, MIC < 1 µg/mL: Cc1ccc(-n2c(-c3ccc(Cl)cc3)cc(CN3CCSCC3)c2C)cc1
condition met
